Recorded values, source PubChem BioAssay (NCI).

tested on: NCI-H23 lung; test: NCI tumour cell line growth inhibition, 48 h
test_readout: TGI

Exercise: Hello, I am looking for reported TGI with NCI-H23 lung for COc1cc2c(cc1O)CC[n+]1cc3c(OC)c(OC)ccc3cc1-2 . Could you help?
Solution: > 100 µM

Exercise: Hello, I am looking for reported TGI with NCI-H23 lung for COc1ccc2c(c1)[C@@]13CCN4CC5=CCO[C@H]6CC(=O)N2[C@H]1[C@H]6[C@H]5C[C@H]43 . Could you help?
Solution: > 100 µM

Exercise: Hello, I am looking for reported TGI with NCI-H23 lung for O=C1CCn2c([nH]c3cccc4cccc2c43)=N1 . Could you help?
Solution: > 100 µM

Exercise: Hello, I am looking for reported TGI with NCI-H23 lung for FC(F)=C(c1ccc(-c2ccc(Cl)cc2)cc1)C(F)(F)F . Could you help?
Solution: 35.4 µM

Exercise: Hello, I am looking for reported TGI with NCI-H23 lung for COc1cc(/C=C/C(=N\NC(=O)c2ccccc2)c2sc(Nc3ccc(Cl)c(Cl)c3)nc2C)ccc1O . Could you help?
Solution: 77.3 µM

Exercise: Hello, I am looking for reported TGI with NCI-H23 lung for O=C(NCCCNCCCCNCCCNC(=O)C(F)(F)F)C(F)(F)F . Could you help?
Solution: > 100 µM

Exercise: Hello, I am looking for reported TGI with NCI-H23 lung for O=C1N[C@@H](O)[C@@H]2ON=C(c3ccccc3)[C@H]12 . Could you help?
Solution: > 100 µM

Exercise: Hello, I am looking for reported TGI with NCI-H23 lung for COc1ccc(CN2C(=O)C(=O)N(C)C2=O)c2ccccc12 . Could you help?
Solution: > 10 µM

Exercise: Hello, I am looking for reported TGI with NCI-H23 lung for NC(CCSCC(F)F)C(=O)O (stereo unspecified) . Could you help?
Solution: > 100 µM

Exercise: Hello, I am looking for reported TGI with NCI-H23 lung for CN1CCN(Cc2ccc(NC(=O)c3ccc(C(C)(C)C)c(C#Cc4cnc5cccnn45)c3)cc2C(F)(F)F)CC1 . Could you help?
Solution: 3.89 µM

Exercise: Hello, I am looking for reported TGI with NCI-H23 lung for CCCSc1cc(Cl)nc(N)n1 . Could you help?
Solution: > 100 µM
